Test: chemical genetic growth profiling, strain panel (AID 1159580);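 also: tested at 20 µM; growth read once vehicle control cultures reached saturation at 30 °C; 1 = growth at the plate median or of vehicle wells; lower values mean less growth of the strain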
Conditions: S. cerevisiae deletion strains, growth OD, locus YDR101C, strain arx1, hits give low values
The campaign covered roughly 5,500 compounds. About 2,000 (36%) were called active. Not shown: some 18% with an inconclusive outcome. The list shows a part of the results.
measuredAttribute: normalized growth

# example entries with known answers
The compound `O=C(/C=C/c1ccc(O)cc1)c1ccc(O)cc1O` showed normalized growth equal to 0.96 (inactive)

Recorded normalized growth (compound `O=C1C=C(O)c2ccccc2C1=O` ): 0.978 (inactive)

Record `O=c1c(O)c(-c2ccccc2)oc2ccccc12` . Reported normalized growth: 1.03 (inactive)

The recorded normalized growth for entry `COc1ccc(/C=C/c2cc(O)cc(O[C@@H]3O[C@H](CO)[C@@H](O)[C@H](O)[C@H]3O)c2)cc1` equals 1.01 (inactive)

What the record says about `CCC[C@@H]1C[C@@H](C(=O)N[C@H]([C@H]2O[C@H](SC)[C@H](O)[C@@H](O)[C@H]2O)[C@H](C)O)N(C)C1` : normalized growth is 1.01 (inactive)

Consider `CCCN(CCC)c1c([N+](=O)[O-])cc(C(F)(F)F)cc1[N+](=O)[O-]` . Its measured normalized growth is 1.01 (inactive)

Hi, could you look up normalized growth for each item in my list?
1. O[C@H]1[C@H](O)[C@@H](O)C2OC[C@H]1O2
2. CC(C)[C@@H]1CC[C@@H](C)CC1=O
3. COC(=O)c1cc(OC)c(=O)c2c(OC)c(OC)ccc2c1
4. O=C(/C=C/c1ccccc1)c1c(O)cc(O)cc1O
5. COc1cc2c(cc1OC)C(C)NCC2 (stereo unspecified)

Response:
["0.994 (inactive)", "1.01 (inactive)", "0.975 (inactive)", "0.999 (inactive)", "0.979 (inactive)"]

---

Assay: chemical genetic growth profiling, strain panel (AID 1159580);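 also: tested at 20 µM; growth read once vehicle control cultures reached saturation at 30 °C; 1 = growth at the plate median or of vehicle wells; lower values mean less growth of the strain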
Conditions: S. cerevisiae deletion strains, growth OD, locus YGL248W, strain PDE1, hits give low values
Hit rate of the full screen: of about 5,500 compounds, about 2,000 (36%) were called active. Inconclusive results (about 18%) are left out. Some of the results follow.
Exercise: for every item that follows, state its recorded normalized growth.
One number for each entry.

The measured normalized growth associated with `OC[C@H]1O[C@@H](Oc2ccc(O)cc2)[C@H](O)[C@@H](O)[C@@H]1O` reads 1.01

Quick request: normalized growth for each listed item, please.
1. O=C(O)CC[N+](=O)[O-]
2. CC(C)[C@@H]1CC[C@@H](C)C[C@H]1OC(=O)c1ccccc1
3. O=C1c2cccc(O)c2C(=O)c2c(O)cccc21
4. O=C(/C=C/c1ccccc1)c1ccc(O[C@@H]2O[C@H](CO)[C@@H](O)[C@H](O)[C@H]2O)cc1O

Response:
[1, 0.94, 0.685, 0.936]

---

Assay: chemical genetic growth profiling, strain panel (AID 1159580);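 also: tested at 20 µM; growth read once vehicle control cultures reached saturation at 30 °C; 1 = growth at the plate median or of vehicle wells; lower values mean less growth of the strain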
Conditions: S. cerevisiae deletion strains, growth OD, locus YDR195W, strain ref2
The whole screen tested about 5,500 compounds, of which about 2,000 (36%) were called active. Inconclusive results (about 18%) are left out. Cut-off read from the data, not from the text of the source: active = normalized growth mostly below about 0.91 (no sharp cut-off); inconclusive = no clear call, values can overlap the other calls; inactive = mostly above about 0.92. This is one part of the list.
Hi there, use one of these labels in your reply, thanks! T (active), F (inactive)

Some entries whose results are on file:
Prompt: Field: outcome | Entry: CC12CCC(OC(=O)c3ccccc3)CC1CCc1ccccc12 (stereo not drawn)
Response: F

Prompt: Which outcome was entered for the compound `O=C(O)c1cccnc1C(=O)O` in this test?
Response: F

Continue with the compound presented below.
Prompt: GET /call?item= `O=c1c(O)c(-c2ccccc2)oc2cc(O)ccc12` returns the recorded outcome of this test.
Response: F

Measured values drawn from PubChem BioAssay AID1159580 for this set.
